test system: UO-31 renal; assay: NCI-60 one-dose screen, 48 h (100 = growth as untreated, 0 = no growth, -100 = all killed); settings: 10 µM unless noted
Compounds without any hit were thinned out: in the full panel of roughly 83,000, 20% have a hit.
Hi! Just check whether growth is below 60%. Below gives TRUE, equal or above gives FALSE.

{"compound": "Cc1nc(/N=C(\\N)NC(=O)Nc2ccccc2Cl)sc1C", "label_value": "TRUE"}
{"compound": "Cc1cccc2c3c(sc12)C(c1ccc(F)cc1)C(C#N)=C(N)O3 (stereo unspecified)", "label_value": "TRUE"}
{"compound": "Cc1ccc(-c2nc(N3CCN(CC(=O)Nc4ccc(Cl)c(C(F)(F)F)c4)CC3)c3ccccc3n2)cc1", "label_value": "FALSE"}
{"compound": "Nc1nc(-c2cccc3ccccc23)cc2ccccc12", "label_value": "TRUE"}
{"compound": "Cc1cccc2c3c(sc12)C(c1ccc(Cl)cc1)C(C#N)=C(/N=C/c1ccc(Cl)cc1)O3 (stereo unspecified)", "label_value": "TRUE"}
{"compound": "Cc1ccc(-c2nc(N3CCN(C(=O)c4ccc(OC(F)(F)F)cc4)CC3)c3ccccc3n2)cc1", "label_value": "TRUE"}
{"compound": "O=C(CCN1C(=O)/C(=C/c2ccc(O)cc2)SC1=S)Nc1ccc(Cl)cc1", "label_value": "TRUE"}
{"compound": "CCN1C(=O)N(CC)C2Nn3c(s/c(=C\\c4ccc([N+](=O)[O-])cc4)c3=O)=NC21 (stereo unspecified)", "label_value": "TRUE"}
{"compound": "CC/C=C\\C[C@@H](O)C/C=C1/C(=O)C=C[C@H]1C/C=C\\CCCC(=O)OC", "label_value": "TRUE"}
{"compound": "COc1cccc(Cc2nn3cc(-c4ccccc4)nc3s2)c1", "label_value": "FALSE"}
{"compound": "COc1ccc(-c2cc(-c3ccc(Cl)cc3)c(C#N)c(=O)n2CCCCCC(=O)Nc2ccccc2N)cc1", "label_value": "TRUE"}
{"compound": "O=C(N/N=C/c1c(Cl)cccc1Cl)c1ccc(C(F)(F)F)nc1Nc1cccc(C(F)(F)F)c1", "label_value": "TRUE"}
{"compound": "CCOC(=O)CCN(C(=O)Nc1ccccc1)C1CCCCC1", "label_value": "FALSE"}
{"compound": "Cc1cccc(NC2=C(Cl)C(=O)c3nc(C)ccc3C2=O)c1", "label_value": "TRUE"}
{"compound": "CC(=O)c1ccc(Nc2nc(C(C)=O)c(C)s2)cc1", "label_value": "FALSE"}
{"compound": "O=C(O)C(c1ccccc1)N1C(=O)CSC1=S (stereo unspecified)", "label_value": "FALSE"}
{"compound": "C=C1C(=O)O[C@H]2[C@H]1CC/C(COC(=O)CCSSCCC(=O)OC/C1=C/CC[C@@]3(C)O[C@H]3[C@H]3OC(=O)C(=C)[C@@H]3CC1)=C\\CC[C@@]1(C)O[C@@H]21", "label_value": "TRUE"}
{"compound": "c1ccc2c(-c3nc(-c4c[nH]c5ccncc45)cs3)c[nH]c2c1", "label_value": "TRUE"}
{"compound": "Cc1[nH]c(C(=O)Nc2ccc(C(=O)NCCN)cc2OC(C)C)c(Cl)c1Cl", "label_value": "TRUE"}
{"compound": "COc1ccc(C(=O)C(C)C)c2ccccc12", "label_value": "FALSE"}
{"compound": "COc1ccc(/C=C/c2c(C(=O)/C=C/c3ccc(C(F)(F)F)cc3)c(C)nc3ccccc23)cc1", "label_value": "TRUE"}
{"compound": "Cc1cccc2c(=O)c3c(sc12)c(NCc1ccccc1)nc1ccccc13", "label_value": "FALSE"}
{"compound": "CCOC(=O)c1c(C)nc2c(c1N)CC(=O)N2Cc1ccc(F)cc1", "label_value": "FALSE"}
{"compound": "CCOC(=O)c1cn2ncnc(Oc3ccc(NC(=O)NCCN(C)C)c(Cl)c3)c2c1C", "label_value": "FALSE"}
{"compound": "COc1cc(C(=O)/C=C/c2ccc(OCCCCCC[P+](c3ccccc3)(c3ccccc3)c3ccccc3)cc2)cc(OC)c1OC", "label_value": "TRUE"}
{"compound": "O=C(CCN1C(=O)/C(=C/c2ccc(O)cc2)SC1=S)Nc1ccccc1", "label_value": "FALSE"}
{"compound": "CCCSc1nc2ccc(C)cc2cc1/C=[N+](\\[O-])c1ccccc1", "label_value": "TRUE"}
{"compound": "COc1ccc(C(=O)n2nc(-c3ccccc3)nc2N)cc1OC", "label_value": "FALSE"}
{"compound": "COc1cc(C)c(Cc2cnc(N)nc2N)cc1OC", "label_value": "FALSE"}
{"compound": "c1ccc(-c2nc3sc(-c4ccccc4)cn3n2)cc1", "label_value": "TRUE"}
{"compound": "CCCCCCCCCCCCCCCCCCOc1ccc(CC(=O)OCC[N+](C)(C)C)cc1", "label_value": "FALSE"}
{"compound": "CN1C(=O)N(C)C2Nn3c(s/c(=C\\c4ccccc4)c3=O)=NC21 (stereo unspecified)", "label_value": "FALSE"}
{"compound": "Cc1ccc(-c2cnc3sc(C(=O)NCCc4ccccc4)c(C)n23)cc1", "label_value": "FALSE"}
{"compound": "Cc1ccc(-c2nc3c(c(-c4ccccc4)nn3-c3ccccc3)c(-c3ccc(O)cc3)c2C#N)cc1", "label_value": "TRUE"}
{"compound": "CCOC(=O)c1cn2ncnc(Oc3ccc(NC(=O)NCCN4CCOCC4)c(Cl)c3)c2c1C", "label_value": "FALSE"}
{"compound": "Nc1ccc(Sc2ccc([N+](=O)[O-])c3nonc23)cc1", "label_value": "FALSE"}
{"compound": "NS(=O)(=O)c1ccc(N=Nc2ccc(-c3nn4cc(-c5ccccc5)nc4s3)cc2)cc1", "label_value": "FALSE"}
{"compound": "COc1ccc(C2NC(=O)C(C#N)c3c2sc2c(F)cccc32)c(OC)c1 (stereo unspecified)", "label_value": "TRUE"}
{"compound": "NCCNc1nc2ccccc2c2c(=O)c3cc(F)ccc3sc12", "label_value": "TRUE"}
{"compound": "N#CC1=C(N)Oc2c(sc3c(Br)cccc23)C1c1ccc(Br)cc1 (stereo unspecified)", "label_value": "TRUE"}
{"compound": "COc1ccc2c(c1)C(C)Cc1c(ncnc1-n1c(C)nc3ccccc31)N2C (stereo unspecified)", "label_value": "TRUE"}
